- Measured on: 17-beta-hydroxysteroid dehydrogenase type 1 (Homo sapiens, UniProt P14061)
- Sequence (P14061 whole entry): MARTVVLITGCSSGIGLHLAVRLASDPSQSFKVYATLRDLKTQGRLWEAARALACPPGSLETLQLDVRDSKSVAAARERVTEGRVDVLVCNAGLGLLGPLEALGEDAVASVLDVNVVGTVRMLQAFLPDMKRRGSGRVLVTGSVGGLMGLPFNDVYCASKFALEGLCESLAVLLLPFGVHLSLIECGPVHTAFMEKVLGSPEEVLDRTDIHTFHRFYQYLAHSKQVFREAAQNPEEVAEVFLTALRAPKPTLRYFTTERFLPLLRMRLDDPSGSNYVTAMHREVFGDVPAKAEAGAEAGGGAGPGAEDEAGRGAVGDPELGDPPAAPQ
pIC50: −log10 of the molar value.
Lab note: compare pIC50 against 8. Equal or greater, write Condition met. Smaller, write Condition not met.

Examples with answers:
O=C(c1ccc(-c2cccc(NS(=O)(=O)c3ccccc3)c2)s1)c1c(Cl)ccc(O)c1F ... Condition met
Cc1c(O)cccc1C(=O)c1ccc(-c2cccc(NS(=O)(=O)c3ccccc3)c2)s1 ... Condition not met
Cc1ccc(S(=O)(=O)Nc2cccc(-c3ccc(C(=O)c4cc(F)c(F)c(O)c4F)s3)c2)cc1 ... Condition met

Now consider a different compound.
## Task Dear colleague, could you confirm whether O=C(c1ccc(-c2cccc(NS(=O)(=O)c3cccc(Cl)c3)c2)s1)c1cc(F)c(F)c(O)c1F has pIC50 at or above 8?
## Result Condition met
